Assay name: probe aShh binding to arrayed compounds – biochemical, biotinylated probe, 635/667 nm fluorescence, primary screen (AID 1114);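 further: probe is biotin-labelled aShh protein from a stem cell growth factor screen; measures binding of labelled protein to compounds printed on the slide; score merges feature fluorescence at 667 nm with signal-to-noise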
Condition context: small-molecule microarray, higher = more signal
Documented composite z-score across a set of compounds

Examples with answers:
Compound	composite z-score
COc1ccc(NC(=O)O[C@H]2[C@H](OC(=O)c3cc4ccccc4[nH]3)[C@@H](OC(=O)c3cc4ccccc4[nH]3)[C@@H](OC)O[C@@H]2CO)cc1	0.0121
O=C1N(CCS(=O)(=O)c2ccccc2)c2ccccc2[C@@H]2OC(c3ccc(OCCCO)cc3)=N[C@]12Cc1ccccc1	-0.24
C=CCC(OC(C)=O)[C@@H]1[C@@H](N(Cc2ccc(-c3cccc(C(F)(F)F)c3)o2)C(=O)Cc2ccc(OC)cc2)c2cc(OCCCO)ccc2N1C(=O)c1ccc2ccccc2c1 (stereo not given in full)	-0.214
O=C1[C@@]23C=C(Br)[C@H](C[C@@H]2COC3)[C@]12CO2	-0.234
O=C1C2C=CC(C(O)c3ccc(F)cc3)N(Nc3ccc([N+](=O)[O-])cc3)C2C(=O)N1c1ccccc1 (stereo not given)	0.294

Entry `COc1ccc([C@H]2C[C@H]3C(Br)=C[C@@]2(CO)C(=O)[C@]32CO2)cc1` — recorded composite z-score = -0.262

Consider `COC(=O)[C@@]1(Cc2ccc(OC)cc2)[C@H]2c3cc(C(=O)N4CCCC4)n(CCSCCO)c3C[C@H]2CN1C(=O)c1ccccc1` . Its measured composite z-score is 0.0039

Documented composite z-score of `COc1ccc([Si](C)(C)[C@@H]2[C@@H](CCn3cc(CCO)nn3)O[C@]3(C(=O)N(Cc4cccc(N5C(=O)c6cccc7cccc5c67)c4)c4ccccc43)[C@H]2C)cc1` : -0.0192

For record `C=CC[C@]12N=C(c3ccc(OCCCO)cc3)O[C@H]1c1ccccc1N(CCS(=O)(=O)c1ccccc1)C2=O` the listed composite z-score is 0.54

Value of composite z-score reported for the compound `COC(=O)c1c2oc(c1C(=O)OC)C(=O)NC1(CCCCC1)c1cn(nn1)C[C@H](Cc1ccccc1)NC(=O)N[C@H](CO)CC2` is -0.237

Consider `COCCOC(=O)N1C(=O)[C@@]2(c3cc(C#CC4=CCCCC4)ccc31)[C@H](C(N)=O)[C@H]1C(=O)O[C@H](c3ccccc3)[C@H](c3ccccc3)N1[C@@H]2c1ccc(O)cc1` . Its measured composite z-score is -0.0362

The reported numbers originate from PubChem BioAssay.
